Catalogue of compounds with associated inhibition
molecular target: Cytochrome P450 2C9 (Homo sapiens); experiment: blockers of cytochrome P450 2C9 activity – biochemical, luminescence, ADME assay, primary screen (AID 777); settings: CYP2C9 Supersomes, luciferin-H conversion, at 5 µM, active compounds read high
Screen size: about 96,000 compounds; about 19,000 (20%) were called active. These entries were drawn from the full list.
Express your answer in %, writing the number without its unit.

Solved entries (count: 3):
[
  {
    "compound": "COc1ccc2[nH]cc(/C=C(/C#N)S(=O)(=O)c3ccccc3)c2c1",
    "target_or_test_system": "Cytochrome P450 2C9 (Homo sapiens)",
    "inhibition [%]": 95.4
  },
  {
    "compound": "CC(C)CNC(=O)CC(c1ccccc1)c1c(O)ccc2ccccc12 (stereo not drawn)",
    "target_or_test_system": "Cytochrome P450 2C9 (Homo sapiens)",
    "inhibition [%]": 71.2
  },
  {
    "compound": "O=C(Cn1cc(C(=O)c2cccs2)c2ccccc21)NCc1cccs1",
    "target_or_test_system": "Cytochrome P450 2C9 (Homo sapiens)",
    "inhibition [%]": 93.7
  }
]

// sample Cc1cc(C)nc(SC(C)C(=O)N/N=C/c2cccs2)n1 (stereo not drawn) , its inhibition was 41.1

Item: CCOCCN(C=O)c1cccc(OC)c1 | inhibition: -20.4

The recorded inhibition for CN(C)c1nc(N)nc(CSc2ccccn2)n1 is -8.3
